Ref: patent US11691950B2

# Test system: TOX
# runDescription: TOX assay
# Format: cell-based
# assaySetup: HCl salt
pIC50: −log10 of the molar value. Structures can show the parent of a compound that is named as a salt.
Property: pIC50; scope: individual molecules

molecule	pIC50
C[C@@H]1C[C@H]2[C@@H]3CCC4=CC(=O)C=C[C@]4(C)[C@@]3(F)[C@@H](O)C[C@]2(C)[C@@]1(O)C(=O)COC(=O)C1CC1C(=O)OCc1ccc([C@@H](CN)C(=O)Nc2ccc3cnccc3c2)cc1 (some centres unmarked) [Example 27]	4.00
C[C@@H]1C[C@H]2[C@@H]3CCC4=CC(=O)C=C[C@]4(C)[C@@]3(F)[C@@H](O)C[C@]2(C)[C@@]1(O)C(=O)COC(=O)C[C@H](N)C(=O)OCc1ccc([C@@H](CN)C(=O)Nc2ccc3cnccc3c2)cc1 [Example 83, trihydrochloride]	4.00
CC1(C)O[C@@H]2C[C@H]3[C@@H]4CCC5=CC(=O)C=C[C@]5(C)[C@@]4(F)[C@@H](O)C[C@]3(C)[C@]2(C(=O)COC(=O)CCC(=O)OCc2ccc([C@@H](CN)C(=O)Nc3ccc4cnccc4c3)cc2)O1 [Example 33]	4.26
C[C@@H]1C[C@H]2[C@@H]3CCC4=CC(=O)C=C[C@]4(C)[C@@]3(F)[C@@H](O)C[C@]2(C)[C@@]1(O)C(=O)COC(=O)c1ccc(C(=O)OCc2ccc([C@@H](CN)C(=O)Nc3ccc4cnccc4c3)cc2)cc1 [Example 66, dihydrochloride]	4.00
C[C@@H]1C[C@H]2[C@@H]3CCC4=CC(=O)C=C[C@]4(C)[C@@]3(F)[C@@H](O)C[C@]2(C)[C@@]1(O)C(=O)COC(=O)CCC(=O)OCc1ccc([C@@H](CN)C(=O)Nc2ccc3cnccc3c2)cc1 [Example 25]	4.00
